From: paper PMC4391719

Consider the following molecules; for each one, report its tissue uptake at 4 h.
test: Biodistribution of ^111In-labelled fragments in CD1 nu/nu mice without tumours; format: in vivo, mouse; conditions: CD1 nu/nu, mouse, spleen, iv, 100 kBq, total radioactivity, ^111In-labelled fragment ~100 kBq i.v. tail vein, mice without tumours, after 4 h; read-out: Biodistribution of fragment, Spleen
Where a SMILES comes first, the peptide text is derived from it. The star is where a group is joined. NODAGA = O=C(O)CN1CCN(CC(=O)O)CCN(C(CCC(=O)*)C(=O)O)CC1
Lab book: enter the figure in %ID/g, no units written.

Kindly note the recorded tissue uptake at 4 h for NC(=O)[C@H](CCCCNC(=O)CCC(C(=O)O)N1CCN(CC(=O)O)CCN(CC(=O)O)CC1)NC(=O)[C@H](CO)NC(=O)[C@@H]1CCCN1C(=O)[C@@H]1CCCN1C(=O)[C@@H]1CCCN1C(=O)[C@H](CCC(=O)O)NC(=O)[C@@H](N)CC(=O)O (some centres unmarked) [CL3-F1] (H-DEPPPSK(NODAGA)-NH2) , which is 0.01

Kindly note the recorded tissue uptake at 4 h for CSCC[C@H](NC(=O)[C@H](Cc1ccc(O)cc1)NC(=O)[C@@H](N)CC(=O)O)C(=O)NCC(=O)N[C@@H](Cc1c[nH]c2ccccc12)C(=O)N[C@@H](CCSC)C(=O)N[C@@H](CC(=O)O)C(=O)N[C@@H](Cc1ccccc1)C(=O)N[C@@H](CCCCNC(=O)CCC(C(=O)O)N1CCN(CC(=O)O)CCN(CC(=O)O)CC1)C(N)=O (some centres unmarked) , which is 0.07

----------
assay: Biodistribution of ^111In-labelled fragments in CD1 nu/nu mice without tumours; type: in vivo, mouse; conditions: CD1 nu/nu, mouse, in vivo, iv, 100 kBq, total radioactivity, Biodistribution of fragment, Heart
Where a SMILES comes first, the peptide text is derived from it. The star is where a group is joined. NODAGA = O=C(O)CN1CCN(CC(=O)O)CCN(C(CCC(=O)*)C(=O)O)CC1
Consider the following compounds; for each one, report its tissue uptake at 4 h.
The number alone won't do; follow it with the unit.

Kindly note the recorded tissue uptake at 4 h for CC(C)[C@H](NC(=O)[C@H](C)NC(=O)[C@@H](N)CCC(=O)O)C(=O)N[C@@H](CCCCNC(=O)CCC(C(=O)O)N1CCN(CC(=O)O)CCN(CC(=O)O)CC1)C(N)=O (some centres unmarked) [CL1-F2] (H-EAVK(NODAGA)-NH2) , which is 0.02 %ID/g

Kindly note the recorded tissue uptake at 4 h for CC(C)[C@H](NC(=O)[C@H](C)NC(=O)[C@H](CCC(=O)O)NC(=O)[C@@H](N)CCC(=O)O)C(=O)N[C@@H](CCCCNC(=O)CCC(C(=O)O)N1CCN(CC(=O)O)CCN(CC(=O)O)CC1)C(N)=O (some centres unmarked) [CL1-F1] (H-EEAVK(NODAGA)-NH2) , which is 0.01 %ID/g

Kindly note the recorded tissue uptake at 4 h for NC(=O)[C@H](CCCCNC(=O)CCC(C(=O)O)N1CCN(CC(=O)O)CCN(CC(=O)O)CC1)NC(=O)[C@H](CO)NC(=O)[C@@H]1CCCN1C(=O)[C@@H]1CCCN1C(=O)[C@@H]1CCCN1C(=O)[C@@H](N)CCC(=O)O (some centres unmarked) [CL3-F2] (H-EPPPSK(NODAGA)-NH2) , which is 0.01 %ID/g

Kindly note the recorded tissue uptake at 4 h for NC(=O)[C@@H](N)CCCCNC(=O)CCC(C(=O)O)N1CCN(CC(=O)O)CCN(CC(=O)O)CC1 (some centres unmarked) , which is 0.01 %ID/g

Kindly note the recorded tissue uptake at 4 h for NC(=O)[C@H](CCCCNC(=O)CCC(C(=O)O)N1CCN(CC(=O)O)CCN(CC(=O)O)CC1)NC(=O)[C@H](Cc1ccccc1)NC(=O)[C@@H](N)CC(=O)O (some centres unmarked) , which is 0.01 %ID/g

----------
Consider the following compounds; for each one, report its tissue uptake at 4 h.
test: Biodistribution of ^111In-labelled fragments in CD1 nu/nu mice without tumours; assay type: in vivo, mouse; conditions: CD1 nu/nu, mouse, in vivo, iv, 100 kBq, total radioactivity, Biodistribution of fragment, Liver
Where a SMILES comes first, the peptide text is derived from it. The star is where a group is joined. NODAGA = O=C(O)CN1CCN(CC(=O)O)CCN(C(CCC(=O)*)C(=O)O)CC1

Kindly note the recorded tissue uptake at 4 h for CC(C)[C@H](NC(=O)[C@H](C)NC(=O)[C@H](CCC(=O)O)NC(=O)[C@@H](N)CCC(=O)O)C(=O)N[C@@H](CCCCNC(=O)CCC(C(=O)O)N1CCN(CC(=O)O)CCN(CC(=O)O)CC1)C(N)=O (some centres unmarked) [CL1-F1] (H-EEAVK(NODAGA)-NH2) , which is 0.07 %ID/g

Kindly note the recorded tissue uptake at 4 h for NC(=O)[C@@H](N)CCCCNC(=O)CCC(C(=O)O)N1CCN(CC(=O)O)CCN(CC(=O)O)CC1 (some centres unmarked) , which is 0.08 %ID/g

Kindly note the recorded tissue uptake at 4 h for CC(C)[C@H](NC(=O)[C@H](C)NC(=O)[C@@H](N)CCC(=O)O)C(=O)N[C@@H](CCCCNC(=O)CCC(C(=O)O)N1CCN(CC(=O)O)CCN(CC(=O)O)CC1)C(N)=O (some centres unmarked) [CL1-F2] (H-EAVK(NODAGA)-NH2) , which is 0.08 %ID/g

Kindly note the recorded tissue uptake at 4 h for NC(=O)[C@H](CCCCNC(=O)CCC(C(=O)O)N1CCN(CC(=O)O)CCN(CC(=O)O)CC1)NC(=O)[C@H](Cc1ccccc1)NC(=O)[C@@H](N)CC(=O)O (some centres unmarked) , which is 0.11 %ID/g

Kindly note the recorded tissue uptake at 4 h for NC(=O)[C@H](CCCCNC(=O)CCC(C(=O)O)N1CCN(CC(=O)O)CCN(CC(=O)O)CC1)NC(=O)[C@H](CO)NC(=O)[C@@H]1CCCN1C(=O)[C@@H]1CCCN1C(=O)[C@@H]1CCCN1C(=O)[C@@H](N)CCC(=O)O (some centres unmarked) [CL3-F2] (H-EPPPSK(NODAGA)-NH2) , which is 0.07 %ID/g

----------
assay: Biodistribution of ^111In-labelled fragments in CD1 nu/nu mice without tumours; format: in vivo, mouse; conditions: CD1 nu/nu, mouse, stomach, iv, 100 kBq, total radioactivity, ^111In-labelled fragment ~100 kBq i.v. tail vein, mice without tumours, after 4 h; read-out: Biodistribution of fragment, Stomach
Where a SMILES comes first, the peptide text is derived from it. The star is where a group is joined. NODAGA = O=C(O)CN1CCN(CC(=O)O)CCN(C(CCC(=O)*)C(=O)O)CC1
Consider the following compounds; for each one, report its tissue uptake at 4 h.
Lab book: enter the figure in %ID/g, no units written.

Kindly note the recorded tissue uptake at 4 h for NC(=O)[C@H](CCCCNC(=O)CCC(C(=O)O)N1CCN(CC(=O)O)CCN(CC(=O)O)CC1)NC(=O)[C@H](CO)NC(=O)[C@@H]1CCCN1C(=O)[C@@H]1CCCN1C(=O)[C@@H]1CCCN1C(=O)[C@H](CCC(=O)O)NC(=O)[C@@H](N)CC(=O)O (some centres unmarked) [CL3-F1] (H-DEPPPSK(NODAGA)-NH2) , which is 0.01

Kindly note the recorded tissue uptake at 4 h for CSCC[C@H](NC(=O)[C@H](Cc1ccc(O)cc1)NC(=O)[C@@H](N)CC(=O)O)C(=O)NCC(=O)N[C@@H](Cc1c[nH]c2ccccc12)C(=O)N[C@@H](CCSC)C(=O)N[C@@H](CC(=O)O)C(=O)N[C@@H](Cc1ccccc1)C(=O)N[C@@H](CCCCNC(=O)CCC(C(=O)O)N1CCN(CC(=O)O)CCN(CC(=O)O)CC1)C(N)=O (some centres unmarked) , which is 0.04

----------
Assay: Biodistribution of ^111In-labelled fragments in CD1 nu/nu mice without tumours
Assay type: in vivo, mouse
Conditions: CD1 nu/nu, mouse, in vivo, iv, 100 kBq, total radioactivity, Biodistribution of fragment, Stomach
Protocol: Biodistribution of ^111In-PSI-CLNOD1, ^111In-PSI-CLNOD2, ^111In-PSI-CLNOD3 and ^111In-Ex4NOD40 were performed in CD 1 nu/nu mice with tumour xenografts that were prepared as previously described. […] Blood, heart, lungs, spleen, kidneys, pancreas, stomach, intestine, liver, muscle, bone and tumour were removed, weighted and activity determined in a γ-counter (Packard Cobra II Auto Gamma, Perkin Elmer, Switzerland). […]
Where a SMILES comes first, the peptide text is derived from it. The star is where a group is joined. NODAGA = O=C(O)CN1CCN(CC(=O)O)CCN(C(CCC(=O)*)C(=O)O)CC1
observedProperty: tissue uptake at 4 h

Kindly note the recorded tissue uptake at 4 h for NC(=O)[C@H](CCCCNC(=O)CCC(C(=O)O)N1CCN(CC(=O)O)CCN(CC(=O)O)CC1)NC(=O)[C@H](CO)NC(=O)[C@@H]1CCCN1C(=O)[C@@H]1CCCN1C(=O)[C@@H]1CCCN1C(=O)[C@@H](N)CCC(=O)O (some centres unmarked) [CL3-F2] (H-EPPPSK(NODAGA)-NH2) , which is 0.02 %ID/g

Kindly note the recorded tissue uptake at 4 h for NC(=O)[C@H](CCCCNC(=O)CCC(C(=O)O)N1CCN(CC(=O)O)CCN(CC(=O)O)CC1)NC(=O)[C@H](Cc1ccccc1)NC(=O)[C@@H](N)CC(=O)O (some centres unmarked) [CL2-F2] , which is 0.03 %ID/g

Kindly note the recorded tissue uptake at 4 h for NC(=O)[C@@H](N)CCCCNC(=O)CCC(C(=O)O)N1CCN(CC(=O)O)CCN(CC(=O)O)CC1 (some centres unmarked) [CL1-F3] , which is 0.02 %ID/g

Kindly note the recorded tissue uptake at 4 h for CC(C)[C@H](NC(=O)[C@H](C)NC(=O)[C@H](CCC(=O)O)NC(=O)[C@@H](N)CCC(=O)O)C(=O)N[C@@H](CCCCNC(=O)CCC(C(=O)O)N1CCN(CC(=O)O)CCN(CC(=O)O)CC1)C(N)=O (some centres unmarked) [CL1-F1] (H-EEAVK(NODAGA)-NH2) , which is 0.02 %ID/g

Kindly note the recorded tissue uptake at 4 h for CC(C)[C@H](NC(=O)[C@H](C)NC(=O)[C@@H](N)CCC(=O)O)C(=O)N[C@@H](CCCCNC(=O)CCC(C(=O)O)N1CCN(CC(=O)O)CCN(CC(=O)O)CC1)C(N)=O (some centres unmarked) [CL1-F2] (H-EAVK(NODAGA)-NH2) , which is 0.02 %ID/g
